# viscosity per record follows
Test: wn = mass fraction of the nth substance listed
Conditions: 333.15 K; 101 kPa; Liquid; Concentric cylinders viscometry; w1 = 0.25
Answer with a number only, understood to be in mPa·s.

> print(dat)
                                   compound  observable  measurednumber
1  CC(O)CN(CC(C)O)CC(C)O (centres undefined) [triisopropanolamine] + O   viscosity           1.104
2  CC(O)CNCC(C)O (centres undefined) [N-(2-hydroxypropyl)-2-hydroxy-1-propanamine] + O   viscosity           1.145
3              OCCNCCO [diethanolamine] + O   viscosity           1.037

Shift focus to the following entry.
Which value of viscosity has been reported for CC(O)CN (centres undefined) [1-amino-2-propanol] + O in the records?
0.9934
